All figures here come from the NIST ThermoML archive (doi:10.1016/j.jct.2017.08.035).

Conditions: 338.15 K; 100 kPa; Liquid; Vibrating tube method
Attribute: mass density
Report the figure in kg/m3 without appending any unit label.

COMPOUND	mass density [kg/m3]
CC(=O)[O-].CCn1cc[n+](CCOC)c1 [1-ethyl-3-(2-methoxyethyl)imidazolium acetate]	1166.13
CCn1cc[n+](CCOC)c1.N#C[S-] [1-ethyl-3-(2-methoxyethyl)imidazolium thiocyanate]	1096.92
CCn1cc[n+](CCOC)c1.O=S(=O)([O-])C(F)(F)F	1322.12
CCn1cc[n+](CCOC)c1.O=S(=O)([N-]S(=O)(=O)C(F)(F)F)C(F)(F)F	1423.51

// below: mass density requested for another compound
Incoming: Please report the recorded mass density for CCn1cc[n+](CCOC)c1.N#C[N-]C#N [1-ethyl-3-(2-methoxyethyl)imidazolium dicyanamide] .
Outgoing: 1087

* * *

Attribute: surface tension liquid-gas
Settings: 338.15 K, Maximal bubble pressure
Report the figure in mN/m without appending any unit label.

A selection of reference data follows.
COMPOUND	REPORTED
CCn1cc[n+](CCOC)c1.N#C[N-]C#N [1-ethyl-3-(2-methoxyethyl)imidazolium dicyanamide]	42.4
CCn1cc[n+](CCOC)c1.N#C[S-] [1-ethyl-3-(2-methoxyethyl)imidazolium thiocyanate]	46.7
CC(=O)[O-].CCn1cc[n+](CCOC)c1 [1-ethyl-3-(2-methoxyethyl)imidazolium acetate]	43.9
CCn1cc[n+](CCOC)c1.O=S(=O)([N-]S(=O)(=O)C(F)(F)F)C(F)(F)F	33.9

// below: surface tension liquid-gas requested for another compound
Incoming: Please report the recorded surface tension liquid-gas for CCn1cc[n+](CCOC)c1.O=S(=O)([O-])C(F)(F)F .
Outgoing: 35.8

* * *

Details: 323.15 K; 100 kPa; Liquid; Vibrating tube method
Numbers after ± are expanded uncertainties.
Attribute: mass density
Quick note: number first, unit second.

A selection of reference data follows.
COMPOUND	REPORTED
CCn1cc[n+](CCOC)c1.O=S(=O)([N-]S(=O)(=O)C(F)(F)F)C(F)(F)F	1438.21 ± 2.4 kg/m3
CCn1cc[n+](CCOC)c1.N#C[S-] [1-ethyl-3-(2-methoxyethyl)imidazolium thiocyanate]	1106.23 ± 4.6 kg/m3
CC(=O)[O-].CCn1cc[n+](CCOC)c1 [1-ethyl-3-(2-methoxyethyl)imidazolium acetate]	1175.86 ± 4.6 kg/m3
CCn1cc[n+](CCOC)c1.N#C[N-]C#N [1-ethyl-3-(2-methoxyethyl)imidazolium dicyanamide]	1096.84 ± 4.6 kg/m3

// below: mass density requested for another compound
Incoming: Please report the recorded mass density for CCn1cc[n+](CCOC)c1.O=S(=O)([O-])C(F)(F)F .
Outgoing: 1334.67 ± 4.6 kg/m3

* * *

Settings: 313.15 K; 100 kPa; Liquid; Vibrating tube method
QUANTITY KIND: mass density (kg/m3)
Report the figure in kg/m3 without appending any unit label.

A selection of reference data follows.
COMPOUND	mass density [kg/m3]
CCn1cc[n+](CCOC)c1.N#C[S-] [1-ethyl-3-(2-methoxyethyl)imidazolium thiocyanate]	1112.52
CC(=O)[O-].CCn1cc[n+](CCOC)c1 [1-ethyl-3-(2-methoxyethyl)imidazolium acetate]	1182.43
CCn1cc[n+](CCOC)c1.N#C[N-]C#N [1-ethyl-3-(2-methoxyethyl)imidazolium dicyanamide]	1103.48
CCn1cc[n+](CCOC)c1.O=S(=O)([N-]S(=O)(=O)C(F)(F)F)C(F)(F)F	1448.12

// below: mass density requested for another compound
Incoming: Please report the recorded mass density for CCn1cc[n+](CCOC)c1.O=S(=O)([O-])C(F)(F)F .
Outgoing: 1343.11

* * *

Conditions: 323.15 K, Maximal bubble pressure
Attribute: surface tension liquid-gas
Report the figure in mN/m without appending any unit label.

A selection of reference data follows.
COMPOUND	surface tension liquid-gas, mN/m
CC(=O)[O-].CCn1cc[n+](CCOC)c1 [1-ethyl-3-(2-methoxyethyl)imidazolium acetate]	44.5
CCn1cc[n+](CCOC)c1.O=S(=O)([O-])C(F)(F)F	36.5
CCn1cc[n+](CCOC)c1.O=S(=O)([N-]S(=O)(=O)C(F)(F)F)C(F)(F)F	34.7
CCn1cc[n+](CCOC)c1.N#C[N-]C#N [1-ethyl-3-(2-methoxyethyl)imidazolium dicyanamide]	43.1

Incoming: Please report the recorded surface tension liquid-gas for CCn1cc[n+](CCOC)c1.N#C[S-] [1-ethyl-3-(2-methoxyethyl)imidazolium thiocyanate] .
Outgoing: 47.5

* * *

Attribute: mass density
Details: 308.15 K; 100 kPa; Liquid; Vibrating tube method
Report the figure in kg/m3 without appending any unit label.

A selection of reference data follows.
MOLECULE	mass density [kg/m3]
CCn1cc[n+](CCOC)c1.N#C[N-]C#N [1-ethyl-3-(2-methoxyethyl)imidazolium dicyanamide]	1106.83
CC(=O)[O-].CCn1cc[n+](CCOC)c1 [1-ethyl-3-(2-methoxyethyl)imidazolium acetate]	1185.74

Incoming: Please report the recorded mass density for CCn1cc[n+](CCOC)c1.O=S(=O)([N-]S(=O)(=O)C(F)(F)F)C(F)(F)F .
Outgoing: 1453.11

Incoming: Please report the recorded mass density for CCn1cc[n+](CCOC)c1.O=S(=O)([O-])C(F)(F)F .
Outgoing: 1347.35

Incoming: Please report the recorded mass density for CCn1cc[n+](CCOC)c1.N#C[S-] [1-ethyl-3-(2-methoxyethyl)imidazolium thiocyanate] .
Outgoing: 1115.69

* * *

Conditions: 328.15 K; 100 kPa; Liquid; Vibrating tube method
QUANTITY KIND: mass density (kg/m3)
Report the figure in kg/m3 without appending any unit label.

A selection of reference data follows.
COMPOUND	READING UNIT	mass density
CC(=O)[O-].CCn1cc[n+](CCOC)c1 [1-ethyl-3-(2-methoxyethyl)imidazolium acetate]	kg/m3	1172.58
CCn1cc[n+](CCOC)c1.O=S(=O)([O-])C(F)(F)F	kg/m3	1330.48
CCn1cc[n+](CCOC)c1.N#C[N-]C#N [1-ethyl-3-(2-methoxyethyl)imidazolium dicyanamide]	kg/m3	1093.53
CCn1cc[n+](CCOC)c1.O=S(=O)([N-]S(=O)(=O)C(F)(F)F)C(F)(F)F	kg/m3	1433.29

Incoming: Please report the recorded mass density for CCn1cc[n+](CCOC)c1.N#C[S-] [1-ethyl-3-(2-methoxyethyl)imidazolium thiocyanate] .
Outgoing: 1103.12

* * *

Settings: 313.15 K, Maximal bubble pressure
Numbers after ± are expanded uncertainties.
Attribute: surface tension liquid-gas
Quick note: number first, unit second.

A selection of reference data follows.
COMPOUND	surface tension liquid-gas
CCn1cc[n+](CCOC)c1.N#C[S-] [1-ethyl-3-(2-methoxyethyl)imidazolium thiocyanate]	48 ± 0.5 mN/m
CCn1cc[n+](CCOC)c1.O=S(=O)([N-]S(=O)(=O)C(F)(F)F)C(F)(F)F	35.2 ± 0.4 mN/m
CCn1cc[n+](CCOC)c1.O=S(=O)([O-])C(F)(F)F	37.1 ± 0.4 mN/m
CC(=O)[O-].CCn1cc[n+](CCOC)c1 [1-ethyl-3-(2-methoxyethyl)imidazolium acetate]	45.1 ± 0.5 mN/m

// below: surface tension liquid-gas requested for another compound
Incoming: Please report the recorded surface tension liquid-gas for CCn1cc[n+](CCOC)c1.N#C[N-]C#N [1-ethyl-3-(2-methoxyethyl)imidazolium dicyanamide] .
Outgoing: 43.7 ± 0.5 mN/m

* * *

Details: 298.15 K; 100 kPa; Liquid; Vibrating tube method
QUANTITY KIND: mass density (kg/m3)
Report the figure in kg/m3 without appending any unit label.

COMPOUND	READING UNIT	REPORTED
CCn1cc[n+](CCOC)c1.N#C[N-]C#N [1-ethyl-3-(2-methoxyethyl)imidazolium dicyanamide]	kg/m3	1113.6
CCn1cc[n+](CCOC)c1.O=S(=O)([O-])C(F)(F)F	kg/m3	1355.89
CCn1cc[n+](CCOC)c1.O=S(=O)([N-]S(=O)(=O)C(F)(F)F)C(F)(F)F	kg/m3	1463.13
CCn1cc[n+](CCOC)c1.N#C[S-] [1-ethyl-3-(2-methoxyethyl)imidazolium thiocyanate]	kg/m3	1122.11

Incoming: Please report the recorded mass density for CC(=O)[O-].CCn1cc[n+](CCOC)c1 [1-ethyl-3-(2-methoxyethyl)imidazolium acetate] .
Outgoing: 1192.38
